Reference for the values: the supplement of paper PMC6555819

System: RARa:RXR (NR concentration 270 nM, RXRa partner concentration 90 nM)
EXPERIMENTAL PROTOCOL: PBM binding z-score (relative to random genomic background probes); higher = stronger binding; sequences stand for … in GC…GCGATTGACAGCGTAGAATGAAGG
MEASURED METRIC: PBM binding z-score

Illustrative cases are given below, each with its answer.
>>> val("CAAACTAGGTCACCGGAAGGTTAAAGTCCGCATG")
5.18
>>> val("AGAACGAGGGCACGCTGAGTTGATAGCGGAGTAG")
0.611
>>> val("CGTCCAAGGTCAGAGAGGTCAGTGCATGCCGAGT")
5.08
>>> val("ATATGTAGGTTAGTTGGGGTCATTCAGACTAGGC")
5.99
>>> val("ACAGACAGGTGAGGGAAGGTAACTCAGCTGGACG")
0.343
>>> val("GCTGCTAGGTCAACTGATGGTCTGCTAAAGCTCG")
2.39
>>> val("CAAACTATGTCAAAGGTCAAAGTCGAGCCAACCA")
7.09
>>> val("AGAATGAGGTTAGTAAGATCAGGGAATTGCGGTC")
0.331

// query PBM binding z-score value for entry `GCTTACGGGTCAAAGGTTTTAGCATGAATAGAAT`
5.58

###

# Lookup of reported PBM binding z-score keyed by entry
System: PXR homodimer (NR concentration 270 nM)
EXPERIMENTAL PROTOCOL: PBM binding z-score (relative to random genomic background probes); higher = stronger binding; sequences stand for … in GC…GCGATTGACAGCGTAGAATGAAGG
Form rule: numeric answer, no unit written next to it.

Illustrative cases are given below, each with its answer.
>>> val("GGAACTAGGGCAAGTTGATAGCAGAGTTTGATGG")
0.803
>>> val("GCTTGTAGATCTAGGTTAAGAAAGACTAAGCTAA")
-0.246
>>> val("TGAATGAGTTTAAAGATCAGGGAACGTGGCGTCG")
0.782
>>> val("ATTAGTTGGTCAGCTGAGGTCACACACAATTCGG")
2.59
>>> val("TCACATAGGTAAACAGGTGAAAGTCCGTAAGTTA")
0.449

Please examine the following record next.
// query PBM binding z-score value for entry `CGAACTAGGTCATTGACAGGTCAGTGAATAGTAA`
0.482

###

Test system: THRa homodimer (NR concentration 90 nM)
EXPERIMENTAL PROTOCOL: PBM binding z-score (relative to random genomic background probes); higher = stronger binding; sequences stand for … in GC…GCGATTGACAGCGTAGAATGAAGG
# Lookup of reported PBM binding z-score keyed by entry
Form rule: numeric answer, no unit written next to it.

Illustrative cases are given below, each with its answer.
>>> val("TAGCCTAGGTCATTGGGCCAGTGTAGTACGCATC")
0.8
>>> val("ATCGCTAGGTAAAGTTCAGTGAAAGATCGATAGA")
-0.888
>>> val("CCGACTAGGGCAAGGTTACCATAACGCACAGCCA")
0.242
>>> val("AGAACGAGGACACGCTGAGTTGATAGCAGAGTAG")
2.29

// query PBM binding z-score value for entry `ATCGAGAGGTCGACGAGGTGAGTATACACCGTTT`
0.777

###

Tested on: RARb homodimer (NR concentration 270 nM)
EXPERIMENTAL PROTOCOL: PBM binding z-score (relative to random genomic background probes); higher = stronger binding; sequences stand for … in GC…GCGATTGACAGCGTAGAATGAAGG
# Lookup of reported PBM binding z-score keyed by entry
Form rule: numeric answer, no unit written next to it.

// query PBM binding z-score value for entry `CCTGCTAGGTCAATGGTCAGTTAAAGCAGCTCGC`
3.24

// query PBM binding z-score value for entry `CATACAGGGTCAGCTAGGCCAGAGTGGGGACGGC`
3.76

// query PBM binding z-score value for entry `CCTAGTTGGTCCAGGTCACACACGCTATAGGTAC`
3.15

// query PBM binding z-score value for entry `CGTCAATGTTCAACTAAGGTAACGTAAAGCACGC`
0.643
